Let's go through some recorded IC50 values for MR1 (Homo sapiens) together.
Numbers only, in µM.

Here are 5 compounds together with their reported answers.
| compound | target_of_assay | units_of_measure | data_value |
| --- | --- | --- | --- |
| COc1cc(C=O)ccc1O | MR1 (Homo sapiens) | µM | 325 |
| O=Cc1cccc(C(=O)O)c1O | MR1 (Homo sapiens) | µM | 0.563 |
| COc1ccc(O)c(C=O)c1 [HMB, 2-hydroxy-5-methoxybenzaldehyde] | MR1 (Homo sapiens) | µM | 775 |
| O=C(O)CCNC(=O)c1cc(=O)[nH]c(=O)[nH]1 | MR1 (Homo sapiens) | µM | 20 |
| O=C(O)Cc1ccccc1Nc1c(Cl)cccc1Cl | MR1 (Homo sapiens) | µM | 2600 |

CCOc1cc(C=O)ccc1O yielded IC50 of 325

From: paper PMC9764189
